test system: VchCAST RNA-guided transposition machinery (E. coli BL21(DE3) host, lacZ target); assay: relative integration efficiency (T-LR orientation) vs wild-type transposon end (log2 (normalized fold change)); transposon end mutated: right end (5 bp flank + 75 bp right end); higher = more efficient transposition
Listed below: relative integration efficiency (log2) values for each entry.
// print number alone

{"SEQ TEXT": "ACATTTGTTGATACACCCATAAATTGATAATTACACCCATAAATTGATAATTATCACAACCATAAAGTGATATTTACTCTGATCATAGTCAGACCAACATTGCTACGACCCGTATTCGCACCGACAC", "relative integration efficiency (log2)": -0.01}

Looking for the measured relative integration efficiency (log2) of `ACATTTCTCGATACAACCATAAAATGATAATTACACCCATAAATGGATAATTATCACACCCAATTTAACTATAACGCTCTGATCATAGTCAGACCAACATTGCTACGACCCGTATTCGCACCGACAC` , can you help?
0.276

If you can, please state the reported relative integration efficiency (log2) value of `ACATTTGTTGATACACCCATAAATTGATATTGCCAACCATAAAGTGATATTTATCACACCCATAAATTGATATTGCCTCTGATCATAGTCAGACCAACATTGCTACGACCCGTATTCGCACCGACAC` .
-0.415

For the sequence shown here, `ACATTTGTTGATACAACCATAAAATGATAATTACCCCCATCAATTGATAATTATCCCACCCCATTTAACTATAACGCTCTGATCATAGTCAGACCAACATTGCTACGACCCGTATTCGCACCGACAC` , give the reported relative integration efficiency (log2).
0.417

Field request: relative integration efficiency (log2) | item: `ACATTTGTTGATACAACCATAAAATGATAATTACACCCATAAATTGATAATTATCACACGGATAAATTGATATTGCCTCTGATCATAGTCAGACCAACATTGCTACGACCCGTATTCGCACCGACAC`
1.28

# get_value(readout='relative integration efficiency (log2)', item= `ACATTTGTTGATACAACCATAAAATGATAATTACACCCCTACATTGATAATTATCACACCCAATTTAACTATAACGCTCTGATCATAGTCAGACCAACATTGCTACGACCCGTATTCGCACCGACAC` )
0.306

Can you share its relative integration efficiency (log2)? I mean this sequence: `ACATTAGTCGATACAACCATAAAATGATAATTACACCCATAAATTGATCATTATCACACCCAATTTAACTATAACGCTCTGATCATAGTCAGACCAACATTGCTACGACCCGTATTCGCACCGACAC`
-3.34

Recorded relative integration efficiency (log2) of `ACATTTGTTCATACAACCATAAAACGATAATTACACCCATAAATGGATAATTATCACACCCAATTTAACTATAACGCTCTGATCATAGTCAGACCAACATTGCTACGACCCGTATTCGCACCGACAC` , please.
-0.438

Which relative integration efficiency (log2) value is on record for `ACATTTCTGGATACAACCATAAAATGATAATTACACCCATAAATGGATAATTATCACACCCAATTTAACTATAACGCTCTGATCATAGTCAGACCAACATTGCTACGACCCGTATTCGCACCGACAC` ?
-0.444

Fill in the blank: the reported relative integration efficiency (log2) of `ACATTTGTTGATACAACCATAAGTTGATATTTTCACCCATAAATTGATATTGCTCACACCCATAAATTGATAATTACTCTGATCATAGTCAGACCAACATTGCTACGACCCGTATTCGCACCGACAC` is ____.
0.36

Given the entry `ACATTTGTTGATACAACCATAAAATGATAATTACACCCATAAATTGATAATTGTGACACCGAATTTAACTATAACGCTCTGATCATAGTCAGACCAACATTGCTACGACCCGTATTCGCACCGACAC` , report its measured relative integration efficiency (log2).
2.87

Name the recorded relative integration efficiency (log2) for `ACATTTGTTGATACAACCATAAGTTGATATTTTCAACCATAAAGTGATATTTATCACACCCATAAATTGATATTGCCTCTGATCATAGTCAGACCAACATTGCTACGACCCGTATTCGCACCGACAC` .
-0.507

Fill in the blank: the reported relative integration efficiency (log2) of `ACATTTGTTGATACAACCATAAAATGATAATTACACAACGCCCGGTCGCCGGCGACACAAACGCCCGGTCGCGGTAAGAGGATCATAGTCAGACCAACATTGCTACGACCCGTATTCGCACCGACAC` is ____.
0.604

Data request, read-out relative integration efficiency (log2), for `CACGGTGTTGATACAACCATAAAATGATAATTACACCCATAAATTGATAATTATCACACCCATAAATTGATATTGCCTCTGATCATAGTCAGACCAACATTGCTACGACCCGTATTCGCACCGACAC`
0.107

Name the recorded relative integration efficiency (log2) for `ACATTTGTTGATACAACCATAAAATGATAATTACACCCATAAATTGATAATTATCACTGCCATAAATTGATATTGCCTCTGATCATAGTCAGACCAACATTGCTACGACCCGTATTCGCACCGACAC` .
1.72

Dear colleague, I am looking for the recorded relative integration efficiency (log2) of the following sequence: `ACATTTGTTGATACAACCATAAAATGATAATTACACCCATAAATTGATAATTATCACTGGGATAAATTGATATTGCCTCTGATCATAGTCAGACCAACATTGCTACGACCCGTATTCGCACCGACAC`
2.07

Need relative integration efficiency (log2), item `ACATTTGTTGATACAACCATAAGTTGATATTTTCAACCATAAGTTGATATTTTTCACACCCATAAATTGATAATTACTCTGATCATAGTCAGACCAACATTGCTACGACCCGTATTCGCACCGACAC`
-0.132

Given `ACATTTGTTGATACAACCATAAAATGATAATTACACCCATAAATGGATAATTATCACCCCCAATTTAACTATAACGCTCTGATCATAGTCAGACCAACATTGCTACGACCCGTATTCGCACCGACAC` , state its recorded relative integration efficiency (log2).
1.64

Please give the measured relative integration efficiency (log2) for this sequence: `ACATTTGTTGATACAACCATAAAATGATAATTACACCCATAAAGGTCGCCGGCGACACAAACGCCCGGTCGCGGTAAGAGGATCATAGTCAGACCAACATTGCTACGACCCGTATTCGCACCGACAC`
0.613

Any idea what its relative integration efficiency (log2) is? The sequence is `ACATTTGTTGATACAACCATAAAATGATAATTACACCCATAAATTGATAATTAGACACAAACGCCCGGTCGCGGTAAGAGGATCATAGTCAGACCAACATTGCTACGACCCGTATTCGCACCGACAC`
2.66
